B1: PhoQ; a variant is named by its letters at X, in order, P23837 (parent)
chain: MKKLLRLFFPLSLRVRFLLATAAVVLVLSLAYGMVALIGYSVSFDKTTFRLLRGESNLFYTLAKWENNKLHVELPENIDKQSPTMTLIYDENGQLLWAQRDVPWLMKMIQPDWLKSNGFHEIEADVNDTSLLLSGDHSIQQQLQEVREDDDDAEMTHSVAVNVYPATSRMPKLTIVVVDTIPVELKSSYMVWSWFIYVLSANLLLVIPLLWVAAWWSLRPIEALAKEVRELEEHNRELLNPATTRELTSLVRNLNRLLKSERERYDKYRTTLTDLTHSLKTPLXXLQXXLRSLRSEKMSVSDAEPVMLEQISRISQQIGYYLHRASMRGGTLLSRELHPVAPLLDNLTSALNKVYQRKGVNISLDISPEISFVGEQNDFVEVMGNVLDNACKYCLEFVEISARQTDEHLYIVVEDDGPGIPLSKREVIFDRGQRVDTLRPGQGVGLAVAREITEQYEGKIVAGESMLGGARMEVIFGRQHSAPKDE

- Variants of: B1
- test method notes: enrichment ratio after two sorts for PhoP signalling (ratio (wild type AVST 3.29)); higher = more functional
- conditions: with PhoP (E. coli)
The full ranking holds about 140,000 sequences; the median of “enrichment ratio after two sorts for PhoP signalling” is about 0, and the highest 2% start at about 11. The full list was thinned out, with the highest values kept by preference.
Kindly supply the reported enrichment ratio values for the records listed here.
Write no unit; give the number alone.

Enquiry: enrichment ratio for `FNCM` ?
Return: 5.18

Enquiry: And `TECK` ?
Return: 4.11

Enquiry: Continue with `FSLM`
Return: 19.2

Enquiry: Another variant to look at: `GVGF`
Return: 12

Enquiry: Do the same for `TECM` please
Return: 31.3

Enquiry: Now consider `SIGQ` .
Return: 10.4

Enquiry: Same lookup for `GNSF` , please.
Return: 1.14

Enquiry: Could you do the same for `STTM` , please?
Return: 14.3

Enquiry: `SSLM` ?
Return: 17.1

Enquiry: Cool, now `SIPA`
Return: 0.817

Enquiry: And what about the variant `SICQ` ?
Return: 27.6

Enquiry: How about `NSLM` ?
Return: 7.81

Every entry's value here was drawn from a collection of fitness landscapes (doi:10.1126/science.1257360).
